test system: human hepatoma Huh-7 cell line harboring a HCV replicon; experiment: HCV replicon assay (inhibition of viral replication, luciferase readout); assay type: cell-based; details: Hepatitis C virus, 72 h, Huh-7 HCV replicon cells, 3 days incubation
assay_endpoint: inhibition at 2 µM (%)
Kindly answer with a numeric value in %, unit omitted.

The compound Cn1nc(O[C@H]2CC[C@@H](N(c3cc(C#CC(C)(C)C)sc3C(=O)O)C(=O)[C@H]3CC[C@H](C)CC3)CC2)ccc1=O showed inhibition at 2 µM equal to 100

The compound CC(C)(C)C#Cc1cc(N(C(=O)[C@H]2CC[C@H](C)CC2)[C@H]2CC[C@@H](Sc3ncccn3)CC2)c(C(=O)O)s1 showed inhibition at 2 µM equal to 99.3

The compound Cc1ccc(O[C@H]2CC[C@H](N(c3cc(C#CC(C)(C)C)sc3C(=O)O)C(=O)[C@H]3CC[C@H](C)CC3)CC2)nc1 showed inhibition at 2 µM equal to 99.9

The compound C[C@@H]1CC[C@@H](C(=O)N(c2cc(C#CC(C)(C)C)sc2C(=O)O)[C@H]2CC[C@H](O[C@@H]3CCOC3)CC2)[C@@H](O)C1 showed inhibition at 2 µM equal to 100

The compound CC1CCC(C(=O)N(CCOc2cccnc2)c2cc(C#CC(C)(C)C)sc2C(=O)O)CC1 (centres unmarked) showed inhibition at 2 µM equal to 99.7

* * *

test system: human hepatoma Huh-7 cell line harboring a HCV replicon; test: HCV replicon assay (inhibition of viral replication, luciferase readout); type: cell-based; details: Hepatitis C virus, 72 h, Huh-7 HCV replicon cells, 3 days incubation
assay_endpoint: inhibition at 2 µM (%)
Kindly answer with a numeric value in %, unit omitted.

The compound CC(C)(C)C#Cc1cc(N(C(=O)[C@H]2CC[C@H](C)CC2)[C@H]2CC[C@@H](Oc3cccnc3)CC2)c(C(=O)O)s1 [Compound 180] showed inhibition at 2 µM equal to 99.6

The compound CC(C)(C)C#Cc1cc(N(C(=O)[C@H]2CC[C@H](C)CC2)[C@H]2CC[C@@H](Oc3cnc(Cl)cn3)CC2)c(C(=O)O)s1 [Compound 182] showed inhibition at 2 µM equal to 99

The compound CC1=CC[C@@H](C(=O)N(c2cc(C#CC(C)(C)C)sc2C(=O)O)[C@H]2CC[C@H](OC3CCOC3)CC2)CC1 (some centres unmarked) [Compound 334] showed inhibition at 2 µM equal to 99.9

The compound C[C@@H]1CC[C@@H](C(=O)N(c2cc(C#CC(C)(C)C)sc2C(=O)O)[C@H]2CC[C@@H](OC3CCOC3)CC2)[C@@H](O)C1 (single isomer, unassigned) [Compound 228] showed inhibition at 2 µM equal to 99.9

The compound Cn1cnnc1S[C@H]1CC[C@@H](N(c2cc(C#CC(C)(C)C)sc2C(=O)O)C(=O)[C@H]2CC[C@H](C)CC2)CC1 [Compound 85] showed inhibition at 2 µM equal to 99.6

* * *

system: human hepatoma Huh-7 cell line harboring a HCV replicon; experiment: HCV replicon assay (inhibition of viral replication, luciferase readout); format: cell-based; settings: Hepatitis C virus, 72 h, Huh-7 HCV replicon cells, 3 days incubation
assay_endpoint: inhibition at 2 µM
A complete answer gives the number followed by the unit.

The compound CC(C)(C)C#Cc1cc(N(C(=O)[C@H]2CC[C@H](C)CC2)[C@H]2CC[C@@H](O[C@H]3CCOC3)CC2)c(C(=O)O)s1 showed inhibition at 2 µM equal to 99.9%

The compound CC(C)(C)C#Cc1cc(N(C(=O)[C@H]2CC[C@H](C)CC2)[C@H]2CC[C@H](Oc3cncc(N4CCCC4)n3)CC2)c(C(=O)O)s1 showed inhibition at 2 µM equal to 100%

The compound CC(C)(C)C#Cc1cc(N(C(=O)[C@H]2CC[C@H](C)CC2)[C@H]2CC[C@H](Oc3ccc(C(F)(F)F)cn3)CC2)c(C(=O)O)s1 showed inhibition at 2 µM equal to 56.2%

Entry source: patent US8569302B2
